test.target: S. aureus DnaE (DNA polymerase III α-subunit homolog from Staphylococcus aureus) (Staphylococcus aureus, UniProt Q5HF71)
Construct: SaDnaE (S. aureus DnaE residues 1-1065); 6xHis (N); made in house; host or cells: E. coli BL21-AI
Sequence (Q5HF71 1-1065): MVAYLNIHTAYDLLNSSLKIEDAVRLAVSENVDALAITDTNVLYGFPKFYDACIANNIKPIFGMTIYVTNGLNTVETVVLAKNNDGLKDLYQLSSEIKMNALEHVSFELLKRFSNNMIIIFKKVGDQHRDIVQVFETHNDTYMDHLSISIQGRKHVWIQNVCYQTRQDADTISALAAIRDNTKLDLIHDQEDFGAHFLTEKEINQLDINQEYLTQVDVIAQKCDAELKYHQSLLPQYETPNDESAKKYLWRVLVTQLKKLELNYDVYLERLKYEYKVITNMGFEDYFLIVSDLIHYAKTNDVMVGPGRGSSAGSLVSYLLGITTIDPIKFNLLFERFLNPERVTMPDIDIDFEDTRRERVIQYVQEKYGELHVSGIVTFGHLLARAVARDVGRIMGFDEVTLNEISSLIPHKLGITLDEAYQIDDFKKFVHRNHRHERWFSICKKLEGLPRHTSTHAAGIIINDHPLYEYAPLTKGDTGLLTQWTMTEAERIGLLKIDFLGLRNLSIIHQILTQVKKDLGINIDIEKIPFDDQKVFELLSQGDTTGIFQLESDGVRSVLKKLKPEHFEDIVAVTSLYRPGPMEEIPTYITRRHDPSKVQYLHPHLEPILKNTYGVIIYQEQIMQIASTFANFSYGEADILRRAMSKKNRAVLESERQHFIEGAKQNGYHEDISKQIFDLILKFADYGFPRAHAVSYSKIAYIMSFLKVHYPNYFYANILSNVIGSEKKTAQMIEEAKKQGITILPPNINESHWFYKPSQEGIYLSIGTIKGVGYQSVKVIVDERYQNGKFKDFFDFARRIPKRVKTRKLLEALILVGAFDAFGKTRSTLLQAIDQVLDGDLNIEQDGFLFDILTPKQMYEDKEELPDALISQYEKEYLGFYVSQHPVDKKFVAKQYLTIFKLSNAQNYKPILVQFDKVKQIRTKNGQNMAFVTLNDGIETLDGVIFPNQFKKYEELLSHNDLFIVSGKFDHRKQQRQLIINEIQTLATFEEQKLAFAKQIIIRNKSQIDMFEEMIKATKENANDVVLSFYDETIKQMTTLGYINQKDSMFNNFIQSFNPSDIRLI
protocol.notes: biochemical
Format: biochemical
measurement.context: read-out: S. aureus DnaE IC50 (converted)
test.readout: IC50

{"columns": ["structure.smiles", "endpoint.value"],
 "data": [
  ["CO[C@H]1C[C@H]2C=CC3C4[C@H](O)[C@@H](C)[C@@H](OC(=O)c5ccc[nH]5)[C@@H]3O[C@]42/C(C)=C/[C@@H](C)[C@@H]([C@@H](C)OC(=O)C(=O)OCCN(C)C)OC1=O.O=C(O)C(F)(F)F", "< 7.76 nM"],
  ["CO[C@H]1C[C@H]2C=CC3C4[C@H](O)[C@@H](C)[C@@H](OC(=O)c5ccc[nH]5)[C@@H]3O[C@]42/C(C)=C/[C@@H](C)[C@@H]([C@@H](C)OC(=O)C(=O)OCc2cccnc2)OC1=O.O=C(O)C(F)(F)F", "< 7.57 nM"],
  ["CO[C@H]1C[C@H]2C=C[C@H]3[C@H]4O[C@]2(/C(C)=C/[C@@H](C)[C@@H]([C@@H](C)O)OC1=O)[C@@H]3[C@H](O)[C@@H](C)[C@H]4OCc1ccsc1", "77.1 nM"],
  ["CO[C@H]1C[C@H]2C=C[C@H]3[C@H]4O[C@]2(/C(C)=C/[C@@H](C)[C@@H]([C@@H](C)O)OC1=O)[C@@H]3[C@H](O)[C@@H](C)[C@H]4OC(=O)c1ccsc1", "< 11.3 nM"]
]}

Origin of values: patent US9944654B2
